Provenance of the data: patent US20220235144A1

test_system: T1, hSIRPβ1D1 with histidine tag (human, UniProt O00241 30-148)
T1 construct: analyte of the Biacore experiments; also called hSIRPβD1; not shown: histidine tag
T1 sequence (O00241 30-148): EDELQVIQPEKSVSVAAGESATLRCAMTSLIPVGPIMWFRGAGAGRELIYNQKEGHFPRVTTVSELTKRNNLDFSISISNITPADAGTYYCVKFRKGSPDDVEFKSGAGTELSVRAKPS
experiment_summary: SPR (Biacore 3000), IgG captured on anti-human IgG, His-tagged D1 analyte
reported_endpoint: pKd
Quick note: pKd values are minus log10 of concentrations in mol/L.

{"columns": ["binder", "result"],
 "data": [
  ["Ab1_G4 (antibody, human IgG4 S228P, kappa, V domains shown, human IgG4 format, kappa light chain, made in EXPICHO cells) VH: EVQLVESGGGLVKPGGSLRLSCAASGFTFSSYVMSWVRQTPGKGLEWVATISSGGTYTYYPSSVKGRFTLSRDNAKNSLYLQMNSLRAEDTAVYYCASSLTGSSFDYWGQGTTVTVSS VL: DIVLTQSPASLAVSLGERATISCRASESVDLYGTSFMHWYQQKPGQPPKLLIYRASNLESGVPDRFSGSGSRTDFTLTINPLQAEDVATYYCHQSSDELPWTFGGGTKVEIKR", 8.86],
  ["Ab11_G4 (antibody, human IgG4 S228P, kappa, V domains shown, human IgG4 format) VH: EVQLVESGGGLVKPGGSLRLSCAASGFTFSSYVMSWVRQTPGKGLEWVATISSGGTYTYYPDSVKGRFTLSRDNAKNSLYLQMNSLRAEDTAVYYCASQLTGSEFDYWGQGTTVTVSS VL: DIVITQSPASLAVSLGERATISCRASESVDSYGNSFMHWYQQKPGQPPKLLIYRASNLESGVPDRFSGSGSRTDFTLTINPLQAEDVATYYCHQSGDLPWTFGGGTKVEIKR", 7.95]
]}

# context switch: different binder, same pKd
Query: Looking for the measured pKd of Ab9_G4 (antibody, human IgG4 S228P, kappa, V domains shown, human IgG4 format) VH: EVQLVESGGGLVKPGGSLRLSCAASGFTFSSYVMSWVRQTPGKGLEWVATISSGGTYTYYPNSVKGRFTLSRDNAKNSLYLQMNSLRAEDTAVYYCVSSMTGSSFDYWGQGTTVTVSS VL: DIVITQSPASLAVSLGERATISCRASESVDSYGNSFMHWYQQKPGQPPKLLIYRASNLESGVPDRFSGSGSRTDFTLTINPLQAEDVATYYCHQSSEQLPWTFGGGTKVEIKR , can you help?
Response: 8.19
